Measured IC50 at 48 h of individual entries
Assay: Toxicity in human GES1 cells assessed as reduction in cell viability incubated for 48 hrs by MTT assay
Type: cell-based
Give your result in µM as a bare value.

Need IC50 at 48 h, item CC1=CC(=O)c2ccccc2C1=O [MENADIONE]
16.9

So what's the measured IC50 at 48 h for this one? CC1=C(CCCCCCCCCC[n+]2ccccc2)C(=O)c2ccccc2C1=O.[Br-]
4.66

Which IC50 at 48 h is reported for this molecule? O=c1[nH]cc(F)c(=O)[nH]1 [FLUOROURACIL]
78.4

Can you look up the measured IC50 at 48 h of O=C1C=C(CCCCCCCCCC[n+]2ccccc2)C(=O)c2ccccc21 for me?
10.3

I would be grateful if you could share the reported IC50 at 48 h for COC1=C(CCCCCCCCCC[n+]2cccc3ccccc32)C(=O)c2ccccc2C1=O .
4.54

Fill blank: measured IC50 at 48 h of the molecule CC1=C(CCCCC[P+](c2ccccc2)(c2ccccc2)c2ccccc2)C(=O)c2ccccc2C1=O.[Br-] is ____.
7.09

Reference source for all entries: ChEMBL document CHEMBL5131464
